Assay: protease stability score; higher = more stable; yeast display proteolysis, trypsin and chymotrypsin
QUANTITY: protease stability score
Please give only the number in your answer, with no unit.

Some sequences with known protease stability score results, for comparison:
| ORDERED RESIDUES | protease stability score |
| --- | --- |
| DEQTHAEELARNFVTAIRTNNDQDIRDLFDKDARVEVGDKTIHGRENIARSIITIAKRVDSVDIRIQHVEVQGDKINIKMERRYDHNGQEHKKDLTMVARLTNGHMRIKVVKMD | 0.885 |
| DESIMNMMHQLIDAMETNDPEKMKRLADKDATFVYGDKTVHGRHQAEEWIHKVKKHQRFRIDLRDVKADNGRVTVNAQIDQNHNGQPSQRTVDAKAEVSNGRVKHASVRRTS | -0.117 |
| DEDKRARKFADTMRKVLEKGNEEEFRDMMDKDVSFKYGDKEVRGREEAAKRLKDTVKRVDRVEVNIKSIHVQGDKVSIDMLIVNDHNGKHHHRRLVFYAKDDNGKLVVVKVTER | 1.86 |
| DNEDAKRVVKLAEHNDFKKWAENADKDVRMKVGDKTWHGRSQFSTAVERLQKNIDHVDLRSVKTHNGRVTIKEQQEVDGRKTDVRFRLQVHNGHIKRVEVQVTDEEDKKTMEKLLS | -0.23 |
| DEEDDKEMEKAIRALLYGDPDKVKKLADPNVNIQYGDKEIQGREEVSKHVDNLRHESRMRVQTMDNDLSGDHAKFDVQYESNHNGKPDTRRVDINAKAHNGHVKHMQWNKDE | -0.25 |

Lab note: next sequence to report on.
Q: Which protease stability score is reported for this sequence? DEEKILKIIDRAVKAIQNGNEEEIRKLGMPNGEAQVGNDRNHGQDALVVMVKMYQKLGNEFEYKEKREEGDQVTTVVQVTFGGTTVEYEVNVQAEGGHIKRWEVRVDETFMKHVEKS
Ans: -0.125

###

Test: protease stability score; higher = more stable; yeast display proteolysis, trypsin and chymotrypsin
In this section we review reported protease stability score values for a set of sequences.
Please give only the number in your answer, with no unit.

| ORDERED RESIDUES | VALUE OBSERVED |
| --- | --- |
| DEEDQKNFAEQANRALHHGDPRQMATLADKDAEVTVGDREYKGRRDINEAMKDWSDQVDSIEVKSVTVQGNNIVVHFVFVHNGHEHKVVMRITMEGDKATSIHLDEK | 0.336 |
| EEHQQKLIEEVLKAMDSGDEDRIKELVDPNAEFHVGDKTWHGMQDWARHVREEVEQIDFTWVNMEIRVKNGTVIMKARFEETRDGQPRTQNVNLRARVHNGRLTSMENDQHG | 0.375 |

Lab note: next sequence to report on.
Q: Which protease stability score is reported for this sequence? DEHEEAKKVADRMIEVEKTGDEDSLTENFDPNVRFKIGDRTYHGEKDMQQLLREIKERADHIDIDVKHVTAHNGRADIDRVRVIQVDGQRRKQRIRMDLTFHNGRLHLKQMKVD
Ans: 0.31

###

Assay: protease stability score; higher = more stable; yeast display proteolysis, trypsin and chymotrypsin;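 further: log10 excess protease needed over predicted unfolded state with 0 meaning unfolded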
QUANTITY: protease stability score
Please give only the number in your answer, with no unit.

Q: Which protease stability score is reported for this sequence? DEENVDRMEEIIRSGDFKELLELADPNVKVVVGDKEYSGRHVATTVLQSLYEQVDHHKVHSVQNEGETVEFDLKVVVNGQEMRMRFVIVFENGRIKTIQIEFTDPRQEEKFLKNIK
Ans: 1.08

Q: Which protease stability score is reported for this sequence? DEEHVDRVVKVLQHNDEEQFKRNAPPDARINIGDKQYRGREDAVEALSELWHRADHIRLHDITVRGNKIEMDMVFVVNGQHVRVVLDVEMRNGKVEQIDAHVTDEKDEENLQRAMD
Ans: 0.393

Q: Which protease stability score is reported for this sequence? DEELTKRAQKQINVLRTGDEKKVLELMDPNAKLSVGEKEYHGMEDIAKTLAQENRQMRIDVKDMKFTSKGDTVDVTLSYVVDHNGQPDEQVVRVHIVAHNGKIKSQEVRRDS
Ans: -0.762

###

In this section we review reported protease stability score values for a set of sequences.
Assay: protease stability score; higher = more stable; yeast display proteolysis, trypsin and chymotrypsin;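 further: log10 excess protease needed over predicted unfolded state with 0 meaning unfolded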
Please give only the number in your answer, with no unit.

Some sequences with known protease stability score results, for comparison:
| ORDERED RESIDUES | protease stability score |
| --- | --- |
| EEDILKRVKHMLKQLETGNEKEYEKNIDPNVKIKVGDKEIRGREEASRYWHRLRHHMRIRVDVKSMNVKNGQVNMNATVTVDVNGRPVRFEFRMVIHATNGTIKEVTLQVDPDQIRKQLG | 1.61 |
| DTRDDERFKEFLKQIETNDPDKLVRMFDPNARIKVGDNELRGREQIHTFWKHVLDEQRVEYTDVKADFNGDKIEVDIRMVNQTNGEPEESRNKVEVKWHNGRLIDVIFRSDG | 0.113 |

Lab note: next sequence to report on.
Q: Which protease stability score is reported for this sequence? DDQKARRLVERFIRALQHGDEDLARQLFDKNAKINIGDKTLTGREDVAKYVHHVHRHVDDVSVKSIQVDGDKAEVRVQFDINGKQHQMTFSAKYRNGRVQSATYKSQ
Ans: 0.524

###

Experiment: protease stability score; higher = more stable; yeast display proteolysis, trypsin and chymotrypsin;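 further: log10 excess protease needed over predicted unfolded state with 0 meaning unfolded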
In this section we review reported protease stability score values for a set of sequences.

Some sequences with known protease stability score results, for comparison:
| ORDERED RESIDUES | protease stability score |
| --- | --- |
| DTEKTTELKKMFDHEQEGNENHLMRMFDPNATVQVGDKRIHGREDLQRWLDRFRKNQRVNVRSITVDVQGERFRVEVEADAKHNGRPNQMHRSMEVEFHNGRIKRADFQTDG | 0.124 |
| DERKQENVAKRVIRALQTGDSDMMERLVDPNAEVRYGDKRLRGREELREFVTTFKRAVDHLSFDRFEVHNGRAVANAKLNVNGRVMHVRIIVNFHDGRVTHIQIDVTDESQATRARS | 0.643 |
| DDDKRANQFFRDMLRVFKNNNEKEAEKLFPPDANQNVGEERVHGREQFRKEFVDDARNVDHWEARIVDLDVKNGRIVIRFEFVKDVNGRKNKDVRTLTVVNHNGRLVIERVNSG | 0.882 |
| DKDAVKRFEELLRALDTNNSEQVKDLLDKNVQFRVGDKVIHGMEEAVRRQIQHNNEIRVEKEIKSIDDHNGRIHVDMTREWEHNGQPRSEKVKFTIEMHNGRVQVDNQKVTS | -0.098 |
| DEKQAKKVLKQMVKAVFNNDEELLKKLGKEDVEVQFMDTKYKGPDQLKKILEQYKRYGIEFHIKKTKVEGDKMQVHAQVHLADNTADVTAEYQADNGKVDHTRVQFSDTAKEVFKKG | -0.003 |

Q: Which protease stability score is reported for this sequence? DEDNQREANRAAKTGDFKRMAEKADPNVSVTVGDKEVKGREEVHKFVQRFDDQVDDLDIKSFRVEGDKVHVQATAVFNGKKIEFSFSARIHNGKLTKMTVKVRDPRQQKKLQKQWE
Ans: 0.004

###

Assay: protease stability score; higher = more stable; yeast display proteolysis, trypsin and chymotrypsin;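 further: log10 excess protease needed over predicted unfolded state with 0 meaning unfolded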
QUANTITY: protease stability score
Please give only the number in your answer, with no unit.

| ORDERED RESIDUES | protease stability score |
| --- | --- |
| DEHVEKRVDEWWKALRQNNPDEANKNMDPNAKLHIGDKTVHGREEAKRQIENRFKEMRFSYKVRHLTAENGEVEIEATFKVEHNGQPRSRSMRMSINVHNGRIVDIQVDIDPRDQQKFRK | 0.041 |

Q: Which protease stability score is reported for this sequence? DDDEARHRAEEIVRQMQSNNWKDIDKLMDKNVQIRVGDKRYTGRTRARKFIKTIADRVDHAHVVNVTVQGNKARFEFIARFDGEHVRMQMVFELHNGHAKKVEVDPEELKQLKK
Ans: 1.04

Q: Which protease stability score is reported for this sequence? DEELLELFERWVDAVHNNDKEQLKRLMDPNVKFQIGDKRWEGREKLVKDIADEQRQIRVRYRVDTMDATNGRADVHAKVEIEVNGKPISFRVRVFMEVHNGKVKSIVWNIPEDDMKKLQK
Ans: 1.63

Q: Which protease stability score is reported for this sequence? DERLKEQVKRLWEALKENDHDELSKLVDKDAHIVVGDKEVHGRENFMTEMATELSEIRIDYKRLHIDAQGDTADVEVDVEQEHNGQPRRDVKRVEFEYENGRLVKMNVQDNG
Ans: 0.438

Q: Which protease stability score is reported for this sequence? DDQQARDIAKELVKALQTGDPERFVELADPNARVEIGDKTYHGHDRMSEMIKTWHRDVDHIRIQDYRAKGDKIEIQFVLDINGKQNRLVMVVQVSNGRITVVFVRSG
Ans: 1.35

Q: Which protease stability score is reported for this sequence? DEELEDLASRIWKAIDHNNPDELKRNFDENVNAQVGDTTYHGMDDWAREIVHNLKEMRIHWSDMRVSKQGEQVRIKARFVTKHNGRPQNMRMTAVFEAHNGRVQDYKQNNRG
Ans: -0.27
